Here the recorded IC50 is given for each entry.
Study target: UniProt:Q5VWK5
Sequence (Q5VWK5 whole entry): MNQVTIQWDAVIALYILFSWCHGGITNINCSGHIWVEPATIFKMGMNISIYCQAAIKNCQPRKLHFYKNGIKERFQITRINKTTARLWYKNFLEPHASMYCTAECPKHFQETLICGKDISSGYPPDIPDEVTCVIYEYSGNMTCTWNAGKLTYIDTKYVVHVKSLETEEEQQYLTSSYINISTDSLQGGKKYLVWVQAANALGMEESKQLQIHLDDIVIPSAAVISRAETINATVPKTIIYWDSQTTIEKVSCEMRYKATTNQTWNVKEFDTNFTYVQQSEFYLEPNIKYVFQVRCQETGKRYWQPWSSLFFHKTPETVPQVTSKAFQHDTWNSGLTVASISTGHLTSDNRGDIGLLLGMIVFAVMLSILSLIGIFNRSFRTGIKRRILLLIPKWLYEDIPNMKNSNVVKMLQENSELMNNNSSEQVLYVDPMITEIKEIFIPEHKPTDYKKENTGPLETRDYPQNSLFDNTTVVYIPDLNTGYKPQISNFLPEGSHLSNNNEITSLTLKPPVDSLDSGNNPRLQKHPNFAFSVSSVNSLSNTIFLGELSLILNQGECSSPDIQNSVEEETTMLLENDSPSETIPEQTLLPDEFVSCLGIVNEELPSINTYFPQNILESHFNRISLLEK
Protocol text: Inhibition of interleukin-23 receptor in human DB cells assessed as reduction in IL-23-stimulated STAT3 phosphorylation incubated for 30 mins by HTRF assay
Format: cell-based

Consider the following illustrative entries.
# Entry smiles, Readout name, Observed measurement
data = [
    ("COc1ccc(C[C@H](NC(=O)[C@@H]2CSCC[C@H](NC(C)=O)C(=O)N[C@@H](CCC(N)=O)C(=O)N[C@@H]([C@@H](C)O)C(=O)N[C@@H](Cc3c[nH]c4ccccc34)C(=O)N[C@@H](CCC(N)=O)C(=O)N2)C(=O)N[C@@H](Cc2c[nH]c3ccccc23)C(=O)N[C@@](C)(CCCCN)C(=O)N[C@@H](CCC(=O)O)C(=O)N[C@@H](CC(N)=O)C(=O)NCC(N)=O)cc1", "IC50", "10 to 25 nM"),
    ("CC(=O)N[C@@H](CS)C(=O)N[C@H](C(=O)N[C@@H](CC(=O)O)C(=O)N[C@@H](Cc1c[nH]c2ccccc12)C(=O)N[C@@H](CCCCN)C(=O)N[C@@H](CS)C(=O)N[C@@H](Cc1ccc(O)cc1)C(=O)N[C@@H](Cc1c[nH]c2ccccc12)C(=O)N[C@@H](Cc1cnc[nH]1)C(=O)N[C@H](C(=O)N[C@@H](Cc1ccccc1)C(=O)NCC(N)=O)[C@@H](C)O)[C@@H](C)O", "IC50", "100 to 1000 nM"),
    ("CC(=O)N[C@H]1CCSC[C@@H](C(=O)N[C@@H](Cc2ccc(O)cc2)C(=O)N[C@@H](Cc2ccc3ccccc3c2)C(=O)N[C@@](C)(CC(C)C)C(=O)N[C@@H](CCC(=O)O)C(=O)N[C@@H](CC(N)=O)C(=O)NCC(N)=O)NC(=O)[C@H](CCC(N)=O)NC(=O)[C@H](Cc2c[nH]c3ccccc23)NC(=O)[C@H]([C@@H](C)O)NC(=O)[C@H](CCC(N)=O)NC1=O", "IC50", "< 10 nM"),
    ("CC(=O)NCCCC[C@H](NC(=O)[C@](C)(CCCCN)NC(=O)[C@H](Cc1ccc2ccccc2c1)NC(=O)[C@H](Cc1ccc(Cl)c(Cl)c1)NC(=O)[C@@H]1CSCC[C@H](NC(C)=O)C(=O)N[C@@H](CCC(N)=O)C(=O)N[C@@H]([C@@H](C)O)C(=O)N[C@@H](Cc2c[nH]c3ccccc23)C(=O)N[C@@H](CCC(N)=O)C(=O)N1)C(=O)N[C@@H](CC(N)=O)C(=O)NCC(N)=O", "IC50", "25 to 100 nM"),
    ("COc1ccc(C[C@H](NC(=O)[C@@H](NC(=O)[C@H](CCC(N)=O)NC(=O)[C@H](Cc2c[nH]c3ccccc23)NC(=O)[C@@H](NC(=O)[C@H](CCC(N)=O)NC(=O)[C@@H](NC(=O)[C@@H]2CCC(=O)N2)C(C)(C)S)[C@@H](C)O)C(C)(C)S)C(=O)N[C@@H](Cc2ccc3ccccc3c2)C(=O)N[C@@](C)(CCCCN)C(=O)N[C@@H](CCCCNC(C)=O)C(=O)N[C@@H](CC(N)=O)C(=O)NCC(N)=O)cc1", "IC50", "< 10 nM"),
    ("CC(=O)NCCCC[C@H](NC(=O)C(C)(C)NC(=O)[C@H](Cc1ccc2ccccc2c1)NC(=O)[C@H](Cc1ccc(OCCN)cc1)NC(=O)[C@@H]1CSCC[C@H](NC(C)=O)C(=O)N[C@@H](CCC(N)=O)C(=O)N[C@@H]([C@@H](C)O)C(=O)N[C@@H](Cc2c[nH]c3ccccc23)C(=O)N[C@@H](CCC(N)=O)C(=O)N1)C(=O)N[C@@H](CC(N)=O)C(=O)N[C@@H](C)C(N)=O", "IC50", "< 10 nM"),
    ("CC(=O)NCCOc1ccc(C[C@H](NC(=O)[C@@H](NC(=O)[C@H](CCC(N)=O)NC(=O)[C@H](Cc2c[nH]c3ccccc23)NC(=O)[C@@H](NC(=O)[C@H](CCC(N)=O)NC(=O)[C@@H](NC(C)=O)C(C)(C)S)[C@@H](C)O)C(C)(C)S)C(=O)N[C@@H](Cc2ccc3ccccc3c2)C(=O)NC(C)(C)C(=O)N[C@@H](CCC(=O)O)C(=O)N[C@@H](CC(N)=O)C(=O)N[C@@H](CC(N)=O)C(N)=O)cc1", "IC50", "< 10 nM"),
    ("CC(=O)NCCCC[C@H](NC(=O)C(C)(C)NC(=O)[C@H](Cc1ccc2ccccc2c1)NC(=O)[C@H](Cc1ccc(OCCN)cc1)NC(=O)[C@@H](NC(=O)[C@H](CCC(N)=O)NC(=O)[C@H](Cc1c[nH]c2ccccc12)NC(=O)[C@@H](NC(=O)[C@H](CCC(N)=O)NC(=O)[C@@H](NC(C)=O)C(C)(C)S)[C@@H](C)O)C(C)(C)S)C(=O)N[C@@H](CC(N)=O)C(=O)N[C@@H](CC(N)=O)C(N)=O", "IC50", "< 10 nM"),
]

Fill in: IC50 of CC(C)[C@H](NC(=O)[C@H](Cc1c[nH]c2ccccc12)NC(=O)[C@H](CC(=O)O)NC(=O)[C@H](C)NC(=O)[C@@H](N)CS)C(=O)N[C@@H](CS)C(=O)N[C@@H](Cc1ccc(O)cc1)C(=O)N[C@@H](Cc1c[nH]c2ccccc12)C(=O)N[C@@H](Cc1cnc[nH]1)C(=O)N[C@H](C(=O)N[C@@H](Cc1ccccc1)C(=O)NCC(N)=O)[C@@H](C)O is ___ 100 to 1000 nM

Fill in: IC50 of CC(=O)NCCCC[C@H](NC(=O)C(C)(C)NC(=O)[C@H](Cc1ccc2ccccc2c1)NC(=O)[C@H](Cc1ccc(OCCN)cc1)NC(=O)[C@@H]1CSCC[C@H](NC(C)=O)C(=O)N[C@@H](CCC(N)=O)C(=O)N[C@@H]([C@@H](C)O)C(=O)N[C@@H](Cc2c[nH]c3ccccc23)C(=O)N[C@@H](CCC(N)=O)C(=O)N1)C(=O)N[C@@H](CCC(N)=O)C(=O)NCC(N)=O is ___ < 10 nM

Fill in: IC50 of CC(=O)NCCCC[C@H](NC(=O)C(C)(C)NC(=O)[C@H](Cc1ccc2ccccc2c1)NC(=O)[C@H](Cc1ccc(OCCN)cc1)NC(=O)[C@@H](NC(=O)[C@H](CCC(N)=O)NC(=O)[C@H](Cc1c[nH]c2ccccc12)NC(=O)[C@@H](NC(=O)[C@H](CC(N)=O)NC(=O)[C@@H](NC(C)=O)C(C)(C)S)[C@@H](C)O)C(C)(C)S)C(=O)N[C@@H](CC(N)=O)C(=O)N[C@@H](CC(N)=O)C(N)=O is ___ < 10 nM

// data source = ChEMBL document CHEMBL4417631
